Would you kindly list one-hybrid fitness for binding NBS DNA for each of these variants?
B1: Caulobacter ParB omega fusion; a variant is named by its letters at X, in order, B8GW30 (parent)
chain: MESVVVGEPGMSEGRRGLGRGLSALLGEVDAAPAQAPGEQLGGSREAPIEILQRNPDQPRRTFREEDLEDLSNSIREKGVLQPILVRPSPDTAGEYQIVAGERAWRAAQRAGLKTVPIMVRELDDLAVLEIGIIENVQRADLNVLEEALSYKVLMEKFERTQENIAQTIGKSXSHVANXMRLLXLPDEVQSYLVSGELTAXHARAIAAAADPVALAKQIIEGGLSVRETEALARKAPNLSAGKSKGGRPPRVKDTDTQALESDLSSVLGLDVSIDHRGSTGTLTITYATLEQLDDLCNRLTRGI

- Variants of: B1
- methodSummary: one-hybrid fitness for binding NBS DNA (the Noc-binding site; scaled: cognate 1, non-cognate 0); higher = stronger binding
- assaySetup: with NBS DNA site
Over roughly 81,000 sequences, “one-hybrid fitness for binding NBS DNA” has its median near -0.1; the highest 2% begin near 0.36. Many of the other results were omitted from the sample, so the highest values are more common in it than they were.

# input variant: SHDP ; wanted: its one-hybrid fitness for binding NBS DNA
≤ 0.2

Using the record for QRLK , report its one-hybrid fitness for binding NBS DNA.
0.329

Data request, read-out one-hybrid fitness for binding NBS DNA, for GAKC
≤ 0.2

Please give the measured one-hybrid fitness for binding NBS DNA for this variant: QILN
≤ 0.2

# one-hybrid fitness for binding NBS DNA lookup, item APCT
≤ 0.2

Name the reported one-hybrid fitness for binding NBS DNA value associated with the variant NLPG
≤ 0.2

Need one-hybrid fitness for binding NBS DNA, item QMAN
≤ 0.2

Any idea what its one-hybrid fitness for binding NBS DNA is? The variant is QLDR
0.295

State the recorded one-hybrid fitness for binding NBS DNA for this entry: QANN
≤ 0.2

Give its one-hybrid fitness for binding NBS DNA value. Item: QLND
≤ 0.2

Can you look up the measured one-hybrid fitness for binding NBS DNA of QAHK for me?
≤ 0.2

Tell me the measured one-hybrid fitness for binding NBS DNA of PAGP , please.
≤ 0.2

Any idea what one-hybrid fitness for binding NBS DNA was measured for LIAF ?
≤ 0.2

I am curious: what one-hybrid fitness for binding NBS DNA value has been reported for WPVG ?
≤ 0.2

Would you kindly share the measured one-hybrid fitness for binding NBS DNA for GTNT ?
≤ 0.2

Which one-hybrid fitness for binding NBS DNA is reported for this variant? QHRK
0.362

# lookup: one-hybrid fitness for binding NBS DNA of FHFL
≤ 0.2

one-hybrid fitness for binding NBS DNA lookup needed for QMAR , thanks.
0.602

Quick check: one-hybrid fitness for binding NBS DNA of FAYR ?
≤ 0.2

Recorded one-hybrid fitness for binding NBS DNA of AMER , please.
≤ 0.2

Requested field: one-hybrid fitness for binding NBS DNA. Item: YEAN
≤ 0.2

Entry HGNS has what one-hybrid fitness for binding NBS DNA?
≤ 0.2

Look up one-hybrid fitness for binding NBS DNA for this variant: FAAR
≤ 0.2

Give its one-hybrid fitness for binding NBS DNA value. Item: VVAC
≤ 0.2

Name the recorded one-hybrid fitness for binding NBS DNA for QCNR .
0.751

For MRTC , what is its reported one-hybrid fitness for binding NBS DNA?
≤ 0.2

Sample QMAP — what was its one-hybrid fitness for binding NBS DNA?
≤ 0.2

Dear colleague, I am looking for the recorded one-hybrid fitness for binding NBS DNA of the following variant: QHFT
0.312
